target: DRB1*07:01 (Homo sapiens, UniProt P01903+P01911, A100R/A102G/A103Q/D57E/D86V/E43K/F76Y/K127E/L162R/M171V/P40G/Q125H/Q99D/R33Q/R42Y/R54Q/S133A/S66F/T210M/V115G/Y107V/Y59L/Y89S); assay: REVEAL HLA-Peptide binding assay (ProImmune); conditions: after 24 hours (H24); score relative to high-affinity control peptide, percentage of the control signal
assay_endpoint: DRB1*07:01 (%)

Some sequences with known DRB1*07:01 results, for comparison:
residue_sequence	unit_annotation	recorded_number
FTRYLRIHPQSWEHQ [Design M-10, peptide covering L2321F, V2333E]	%	27.400
FTRYLRIHPQSWVHH [Design M-13, peptide covering L2321F, Q2335H]	%	29.800
LTRYLKIHPQSWEHQ [Design M-9, peptide covering R2326K, V2333E]	%	17.900
VNSLDPPLLTRYLRI [WT-1, wild-type peptide of Factor VIII C2 domain, reference compound]	%	0.370
LTRYLRIHPQSWVHQ [WT-3, wild-type peptide of Factor VIII C2 domain, reference compound]	%	74.002

(a) LRIHPQSWVHHIALRM [Design M-5, peptide covering Q2335H]
(b) VNSLDPPLTTRYLRI [Design M-2, peptide covering L2321T]
(c) LRLHPQSWEHQIALRM [Design M-15, peptide covering I2327L, V2333E]
Input line: Ascending sort, DRB1*07:01. Labels, ranked as asked.
Output line: b, c, a
(b: 0.000%, c: 21.500%, a: 40.700%)
